Cited source for all entries: paper PMC11239830

Test system: S. pneumoniae
Assay: MIC, broth microdilution
Assay type: cell-based, Streptococcus pneumoniae
Conditions: Streptococcus pneumoniae, S. pneumoniae 05O173, c-ermB, mef; read-out: MIC
# reported MIC; entries follow
Kindly answer with a numeric value in µg/mL, unit omitted.

{"COMPOUND": "CC[C@H]1OC(=O)[C@H](C)[C@@H](OC(=O)NCCCOCCC#Cc2ccc3c(=O)c(C(=O)O)cn(C)c3c2)[C@H](C)[C@@H](O[C@@H]2O[C@H](C)C[C@H](N(C)C)[C@H]2O)[C@](C)(OC)C[C@@H](C)C(=O)[C@H](C)[C@H]2NC(=O)O[C@@]21C", "UNIT_TAG": "µg/mL", "RECORDED_RESULT": 2}
{"COMPOUND": "CC[C@H]1OC(=O)[C@H](C)[C@@H](OC(=O)NCCCCCCC#Cc2ccc3c(=O)c(C(=O)O)cn(C)c3c2)[C@H](C)[C@@H](O[C@@H]2O[C@H](C)C[C@H](N(C)C)[C@H]2O)[C@](C)(O)C[C@@H](C)CN(C)[C@H](C)[C@@H](O)[C@]1(C)O [106g]", "UNIT_TAG": "µg/mL", "RECORDED_RESULT": 128}

Now look at this entry.
Query: Would you mind telling me what MIC value was observed for CC[C@H]1OC(=O)[C@H](C)[C@@H](OC(=O)NCCCCCCCC#Cc2ccc3c(=O)c(C(=O)O)cn(C)c3c2)[C@H](C)[C@@H](O[C@@H]2O[C@H](C)C[C@H](N(C)C)[C@H]2O)[C@](C)(OC)C[C@@H](C)C(=O)[C@H](C)[C@H]2NC(=O)O[C@@]21C [89g] ?
Reply: 16

---

compounds and their reported log10 of MIC
Tested on: S. aureus
Test: MIC, broth microdilution
Type: cell-based, Staphylococcus aureus
Conditions: Staphylococcus aureus, S. aureus 15B196, c-ermB; read-out: MIC
Values below are the log10 of the recorded MIC, with µg/mL as the unit.

Example entries and their recorded answers appear below.
{"COMPOUND": "CCC1OC(=O)C(C)C(OC(=O)NCCCCCC#Cc2ccc3c(=O)c(C(=O)O)cn(C4CC4)c3c2)C(C)C(OC2OC(C)CC(N(C)C)C2O)C(C)(OC)CC(C)C(=NOC)C(C)C2OC(=O)OC12C (centres unmarked) [57c]", "TARGET_UNDER_TEST": "S. aureus", "log10 of MIC": 1.20}
{"COMPOUND": "CC[C@H]1OC(=O)[C@H](C)[C@@H](OC(=O)NCCCCCC#Cc2ccc3c(=O)c(C(=O)O)cn(C4CC4)c3c2)[C@H](C)[C@@H](O[C@@H]2O[C@H](C)C[C@H](N(C)C)[C@H]2O)[C@](C)(OC)C[C@@H](C)C(=O)[C@H](C)[C@H]2OC(=O)O[C@@]21C [79c]", "TARGET_UNDER_TEST": "S. aureus", "log10 of MIC": 1.81}
{"COMPOUND": "CCC1OC(=O)C(C)C(OC(=O)NCCCOCCC#Cc2ccc3c(=O)c(C(=O)O)cn(C4CC4)c3c2)C(C)C(OC2OC(C)CC(N(C)C)C2O)C(C)(OC)CC(C)C(=NOC)C(C)C2OC(=O)OC12C (centres unmarked) [72c]", "TARGET_UNDER_TEST": "S. aureus", "log10 of MIC": 1.51}

Query: Endpoint output: log10 of MIC of CCC1OC(=O)C(C)C(OC(=O)NCCCCCC#Cc2ccc3c(c2)c(=O)c(C(=O)O)cn3C2CC2)C(C)C(OC2OC(C)CC(N(C)C)C2O)C(C)(OC)CC(C)C(=NOC)C(C)C2OC(=O)OC12C (centres unmarked) [57a] . Value?
Reply: 2.11

Query: Given the compound CC[C@H]1OC(=O)[C@H](C)[C@@H](OC(=O)NCCCNCCC#Cc2ccc3c(=O)c(C(=O)O)cn(C4CC4)c3c2)[C@H](C)[C@@H](O[C@@H]2O[C@H](C)C[C@H](N(C)C)[C@H]2O)[C@](C)(OC)C[C@@H](C)C(=O)[C@H](C)[C@H]2NC(=O)O[C@@]21C [98c] , what is its reported log10 of MIC?
Reply: 2.41

Query: Returns the measured log10 of MIC for the input compound. Input: CC[C@H]1OC(=O)[C@H](C)[C@@H](OC(=O)NCCCCCCC#Cc2ccc3c(=O)c(C(=O)O)cn(C)c3c2)[C@H](C)[C@@H](O[C@@H]2O[C@H](C)C[C@H](N(C)C)[C@H]2O)[C@](C)(OC)C[C@@H](C)NC(=O)[C@H](C)[C@@H](O)[C@]1(C)O [126g]
Reply: 1.20
